These measurements were taken from paper PMC4914250.

System: H1299 cells expressing mutp53^R175H
assay.explanation: Crystal violet viability assay, H1299
Format: cell-based
assay.context: score 0-6 compared to positive control, 48 h
Label Criterion met when Viability H1299 is strictly below 3; at or above that, label Criterion not met.

These recorded examples may help you get a feel for the data.
// query Lab note: confirm whether the reported Viability H1299 for this substance is below 3, equality not counting. substance: myr-RRLIVRILKLPNPPER [pCAP-242]
// result Criterion not met

// query Lab note: confirm whether the reported Viability H1299 for this substance is below 3, equality not counting. substance: myr-PRVLPSPHTIHPSQYP [pCAP-229, myristoylated peptide, similarity to HIPK2]
// result Criterion not met

// query Lab note: confirm whether the reported Viability H1299 for this substance is below 3, equality not counting. substance: myr-RRKHNKHRPEPDSDER [pCAP-221]
// result Criterion met

Next:
// query Lab note: confirm whether the reported Viability H1299 for this substance is below 3, equality not counting. substance: FWTQSIKERKMLNEHDFER [pCAP-3, randomly selected peptide used as inert comparison]
// result Criterion met

// query Lab note: confirm whether the reported Viability H1299 for this substance is below 3, equality not counting. substance: HSSHHHPVHSWN [pCAP-83]
// result Criterion not met

// query Lab note: confirm whether the reported Viability H1299 for this substance is below 3, equality not counting. substance: SFILFIRRGRLG [pCAP-60]
// result Criterion met

// query Lab note: confirm whether the reported Viability H1299 for this substance is below 3, equality not counting. substance: IRGRIIRRRRRRRRR [pCAP-54R, pCAP-54 with poly arginine tail]
// result Criterion met

// query Lab note: confirm whether the reported Viability H1299 for this substance is below 3, equality not counting. substance: myr-RRKILFIRLMHNKH [pCAP-227, myristoylated peptide, similarity to GAS2]
// result Criterion not met

// query Lab note: confirm whether the reported Viability H1299 for this substance is below 3, equality not counting. substance: SFILFIRRGRLGRRRRRRRRR [pCAP-60R, pCAP-60 with poly arginine tail]
// result Criterion met

// query Lab note: confirm whether the reported Viability H1299 for this substance is below 3, equality not counting. substance: EVTFRHSVV [pCAP-1, randomly selected peptide used as inert comparison]
// result Criterion met

// query Lab note: confirm whether the reported Viability H1299 for this substance is below 3, equality not counting. substance: WNHHHSTPHPAHRRRRRR [pCAP-97R, pCAP-97 with poly arginine tail]
// result Criterion not met

* * *

Tested on: WI38
assay.explanation: Crystal violet viability assay, WI38
Format: cell-based
assay.context: score 0-6 compared to positive control, 48 h
Experimental: Cells were cultured in 96 wells plates with 2500-4000 cells/well. Serial dilutions of different peptides were added and the plates incubated for additional 48 h at 37°C. Then medium was removed and cell viability was determined by staining the cells with crystal violet (0.05%) in methanol/PBS (1:5, v/v), for 10 min, followed by 3 washes with PBS. 10% acetic acid was added to each well for 10 min. OD was determined at 595 nm.
Below: a set of entries, each annotated with reported Viability WI38.
Answer with a bare number; do not write a unit.

The following substances have reported results that may help.
// query What measured Viability WI38 goes with HSSHHHPVHSWN [pCAP-83] ?
// result 3

// query What measured Viability WI38 goes with IRGRIIRRRRRRRRR [pCAP-54R, pCAP-54 with poly arginine tail] ?
// result 4

// query What measured Viability WI38 goes with SPLQTPAAPGAAAGPALSPV [pCAP-7, synthesized peptide of the functional screen] ?
// result 2

// query What measured Viability WI38 goes with myr-RRKHNKHRPEPDSDER [pCAP-221] ?
// result 6

Next:
// query What measured Viability WI38 goes with IRILMFLIGCGRRRRRRRRR [pCAP-23R, pCAP-23 with poly arginine tail] ?
// result 2
